Biological target: Integrase (Human immunodeficiency virus 1)
Sequence (Q7ZJM1 whole entry): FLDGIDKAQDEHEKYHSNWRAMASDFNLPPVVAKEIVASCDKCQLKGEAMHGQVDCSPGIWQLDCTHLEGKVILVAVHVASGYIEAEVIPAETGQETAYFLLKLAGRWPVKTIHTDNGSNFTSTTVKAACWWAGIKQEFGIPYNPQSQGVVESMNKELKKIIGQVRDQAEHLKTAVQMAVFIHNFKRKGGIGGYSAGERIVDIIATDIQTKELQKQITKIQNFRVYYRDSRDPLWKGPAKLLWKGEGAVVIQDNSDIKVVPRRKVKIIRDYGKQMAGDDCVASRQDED
experimental.endpoint: IC50

Query :: What value of IC50 has been recorded for this entry: `COc1ccc(C=CC(=O)CC(=O)C=Cc2ccc(OC)c(OC)c2)cc1OC`
Result :: > 100 µM

Origin of the recorded values: BindingDB's records for doi:10.1021/jm9707232
